Measured Tm of individual entries
- testProtocol: melting temperature; melt of duplexes
- conditions: sodium 0.0675 M; strand 1 µM

{"substance": "CGACGTGCAGAATGTGCTG+CAGCACATACTGCACGTCG ((((((((((.((((((((+)))))))).))))))))))", "Tm / °C": 57.8}
{"substance": "CGACGTGCCGCATGTGCTG+CAGCACATTGGGCACGTCG (((((((((..((((((((+))))))))..)))))))))", "Tm / °C": 54.4}
{"substance": "CGACGTGCAAGATGTGCTG+CAGCACATCGCGCACGTCG ((((((((..(((((((((+)))))))))..))))))))", "Tm / °C": 58.4}
{"substance": "CGACGTGCGTCATGTGCTG+CAGCACATATTGCACGTCG ((((((((...((((((((+))))))))...))))))))", "Tm / °C": 49.2}
{"substance": "CGACGTGCAAAATGTGCTG+CAGCACATCCGGCACGTCG ((((((((...((((((((+))))))))...))))))))", "Tm / °C": 49.1}
{"substance": "CGACGTGCTGGATGTGCTG+CAGCACATCTGGCACGTCG ((((((((..(((((((((+)))))))))..))))))))", "Tm / °C": 58.3}
{"substance": "CGACGTGCGCAATGTGCTG+CAGCACATTCTGCACGTCG ((((((((..(((((((((+)))))))))..))))))))", "Tm / °C": 52.3}
{"substance": "CGACGTGCGGGATGTGCTG+CAGCACATGCGGCACGTCG ((((((((.(.((((((((+)))))))).).))))))))", "Tm / °C": 55.4}
{"substance": "CGACGTGCGTTATGTGCTG+CAGCACATATAGCACGTCG ((((((((..(((((((((+)))))))))..))))))))", "Tm / °C": 54.5}
{"substance": "CGACGTGCTATATGTGCTG+CAGCACATCCTGCACGTCG ((((((((...((((((((+))))))))...))))))))", "Tm / °C": 48.3}
{"substance": "CGACGTGCGGCATGTGCTG+CAGCACATGCCGCACGTCG (((((((((((((((((((+)))))))))))))))))))", "Tm / °C": 68.9}
{"substance": "CGACGTGCCCTATGTGCTG+CAGCACATAAAGCACGTCG ((((((((..(((((((((+)))))))))..))))))))", "Tm / °C": 50}

Values were extracted from the array DNA melting data of Ke et al..
